Hello, the source for this data is PubChem BioAssay (NCI), in case you need it.

The following molecules are shown together with reported growth values.
test system: NCI-H460 lung; assay: NCI-60 one-dose screen, 48 h (100 = growth as untreated, 0 = no growth, -100 = all killed); details: 10 µM unless noted
About 83,000 compounds went through this panel and 20% of them were active in at least one assay; those are over-represented in the sample as a whole. Active and inactive are the calls of the source. Rule for the calls: active = growth percent below 10; inactive = the rest.

Some solved cases for reference:
CCCc1n(Cc2ccc3ccccc3c2)cc[n+]1Cc1ccc2ccccc2c1; 3.26% (active)
C[N+]1(C)C2CC[C@@H]1CC(OC(=O)C(O)c1ccccc1)C2 (stereo partly drawn); 119% (inactive)
O=C(Nc1ccccc1)c1cc(-n2cnc([N+](=O)[O-])c2)cc(-n2cnc([N+](=O)[O-])c2)n1; 119% (inactive)
O=C(CSc1nnc(-c2cc(-c3ccccc3)nc3ccccc23)o1)c1ccc(Br)cc1; 106% (inactive)
O=C1NC(=O)/C(=C/c2ccc(Cl)cc2Cl)N1; 109% (inactive)
C[C@H]1C(=O)N2c3ccccc3[C@@]3(O)C[C@@H](n4cnc5ccccc5c4=O)C(=O)N1[C@@H]23; 107% (inactive)
O=C1/C(=C/c2ccccc2O)C(=S)SN1Cc1ccco1; 106% (inactive)
CCOC(=O)Nc1ccc2c3c(cccc13)-c1ccccc1-2; 19.2% (inactive)
O=C(Nc1nc(-c2ccc(Cl)cc2)cs1)c1cc(-c2ccc(Br)cc2)nc2ccc(Cl)cc12; 108% (inactive)
COc1cc(Cl)cc(-c2nn(-c3cccc(NC(=O)c4cc(C(F)(F)F)cc(C(F)(F)F)c4)c3)cc2-c2ccncc2)c1; 40.9% (inactive)

Qu. So what growth did CS(=O)(=O)N1CCN(Cc2cc3nc(-c4cccc5[nH]ncc45)nc(N4CCOCC4)c3s2)CC1 (tested in a mixture with another compound) get with NCI-H460 lung?
Ans. 21.7% (inactive)

Qu. So what growth did ICCC(c1ccccc1)(c1ccccc1)c1ccccc1 get with NCI-H460 lung?
Ans. 69.5% (inactive)

Qu. So what growth did CCOc1cc(CCNS(=O)(=O)c2ccc(C)cc2)c(C(C)=O)cc1OCC get with NCI-H460 lung?
Ans. 76.9% [100 µM] (inactive)

Qu. So what growth did C[C@]12CCC(=O)C=C1CC[C@H]1[C@@H]3C[C@@H](O)[C@](O)(C(=O)CO)[C@@]3(C)C[C@H](O)[C@@]12F get with NCI-H460 lung?
Ans. 93.4% (inactive)

Qu. So what growth did OCCCc1n(Cc2ccc3ccccc3c2)c2ccccc2[n+]1Cc1ccc2ccccc2c1 get with NCI-H460 lung?
Ans. 18.4% (inactive)
